These entries and their values trace back to the supplement of paper PMC6379048.

Reported pEC50 values for the following sequences.
Molecular target: SKIV2L2 (UniProt P42285)
Sequence: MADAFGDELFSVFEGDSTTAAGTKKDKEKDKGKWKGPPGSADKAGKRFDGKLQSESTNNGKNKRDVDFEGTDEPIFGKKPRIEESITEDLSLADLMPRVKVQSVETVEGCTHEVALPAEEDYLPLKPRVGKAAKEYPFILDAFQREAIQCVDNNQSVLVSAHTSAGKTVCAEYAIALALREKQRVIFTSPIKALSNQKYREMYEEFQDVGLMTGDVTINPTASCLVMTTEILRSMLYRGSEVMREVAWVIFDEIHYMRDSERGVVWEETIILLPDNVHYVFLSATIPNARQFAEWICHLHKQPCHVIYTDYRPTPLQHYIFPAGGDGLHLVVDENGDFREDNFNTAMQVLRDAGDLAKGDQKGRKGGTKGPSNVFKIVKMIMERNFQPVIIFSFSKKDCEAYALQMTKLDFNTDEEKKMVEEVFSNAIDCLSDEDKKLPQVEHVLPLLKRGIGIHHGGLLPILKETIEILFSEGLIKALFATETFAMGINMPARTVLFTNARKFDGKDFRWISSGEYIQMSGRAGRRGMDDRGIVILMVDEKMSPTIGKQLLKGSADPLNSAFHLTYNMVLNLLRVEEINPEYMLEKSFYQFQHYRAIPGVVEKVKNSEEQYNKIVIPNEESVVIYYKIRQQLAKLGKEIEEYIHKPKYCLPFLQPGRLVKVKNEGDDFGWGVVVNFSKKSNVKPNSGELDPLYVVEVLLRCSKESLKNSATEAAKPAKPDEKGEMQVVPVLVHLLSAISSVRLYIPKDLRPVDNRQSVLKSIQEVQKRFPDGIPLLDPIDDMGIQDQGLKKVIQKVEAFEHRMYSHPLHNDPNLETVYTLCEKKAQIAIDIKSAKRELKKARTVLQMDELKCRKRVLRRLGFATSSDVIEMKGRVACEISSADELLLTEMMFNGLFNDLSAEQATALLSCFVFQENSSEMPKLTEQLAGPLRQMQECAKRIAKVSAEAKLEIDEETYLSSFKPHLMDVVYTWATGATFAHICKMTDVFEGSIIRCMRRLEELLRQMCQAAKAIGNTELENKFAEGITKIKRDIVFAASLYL
Assay: EC50 of free RNA motif oligo competing protein binding to immobilised probe
pEC50 here is simply -log10 of the concentration when that concentration is written in mol/L.

Worked examples, 2 sequences total:
- ordered_residues: "UAUUUAU"
  reported_result: 6.21
- ordered_residues: "CUGUCCU"
  reported_result: 5.46

Let us move to another entry and its pEC50.
sequence AAUAAA , pEC50 observed: 5.54

* * *

Listed sequences paired with reported pKd
Target: LSM7 (UniProt Q9UK45)
Sequence: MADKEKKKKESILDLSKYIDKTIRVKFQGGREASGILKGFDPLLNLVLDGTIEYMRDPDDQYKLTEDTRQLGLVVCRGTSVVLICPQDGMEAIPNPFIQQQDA
Test: Kd (EC50 corrected by depletion factor)
By convention, pKd is the negative base-10 log of a molar concentration.

- ordered_residues: "UAUUUAU"
  pKd: 6.57

# next sequence below
Measured on LSM7 (UniProt Q9UK45), AAUAAA has a documented pKd of 6.85

* * *

Target: WDR33 (UniProt Q9C0J8)
Sequence: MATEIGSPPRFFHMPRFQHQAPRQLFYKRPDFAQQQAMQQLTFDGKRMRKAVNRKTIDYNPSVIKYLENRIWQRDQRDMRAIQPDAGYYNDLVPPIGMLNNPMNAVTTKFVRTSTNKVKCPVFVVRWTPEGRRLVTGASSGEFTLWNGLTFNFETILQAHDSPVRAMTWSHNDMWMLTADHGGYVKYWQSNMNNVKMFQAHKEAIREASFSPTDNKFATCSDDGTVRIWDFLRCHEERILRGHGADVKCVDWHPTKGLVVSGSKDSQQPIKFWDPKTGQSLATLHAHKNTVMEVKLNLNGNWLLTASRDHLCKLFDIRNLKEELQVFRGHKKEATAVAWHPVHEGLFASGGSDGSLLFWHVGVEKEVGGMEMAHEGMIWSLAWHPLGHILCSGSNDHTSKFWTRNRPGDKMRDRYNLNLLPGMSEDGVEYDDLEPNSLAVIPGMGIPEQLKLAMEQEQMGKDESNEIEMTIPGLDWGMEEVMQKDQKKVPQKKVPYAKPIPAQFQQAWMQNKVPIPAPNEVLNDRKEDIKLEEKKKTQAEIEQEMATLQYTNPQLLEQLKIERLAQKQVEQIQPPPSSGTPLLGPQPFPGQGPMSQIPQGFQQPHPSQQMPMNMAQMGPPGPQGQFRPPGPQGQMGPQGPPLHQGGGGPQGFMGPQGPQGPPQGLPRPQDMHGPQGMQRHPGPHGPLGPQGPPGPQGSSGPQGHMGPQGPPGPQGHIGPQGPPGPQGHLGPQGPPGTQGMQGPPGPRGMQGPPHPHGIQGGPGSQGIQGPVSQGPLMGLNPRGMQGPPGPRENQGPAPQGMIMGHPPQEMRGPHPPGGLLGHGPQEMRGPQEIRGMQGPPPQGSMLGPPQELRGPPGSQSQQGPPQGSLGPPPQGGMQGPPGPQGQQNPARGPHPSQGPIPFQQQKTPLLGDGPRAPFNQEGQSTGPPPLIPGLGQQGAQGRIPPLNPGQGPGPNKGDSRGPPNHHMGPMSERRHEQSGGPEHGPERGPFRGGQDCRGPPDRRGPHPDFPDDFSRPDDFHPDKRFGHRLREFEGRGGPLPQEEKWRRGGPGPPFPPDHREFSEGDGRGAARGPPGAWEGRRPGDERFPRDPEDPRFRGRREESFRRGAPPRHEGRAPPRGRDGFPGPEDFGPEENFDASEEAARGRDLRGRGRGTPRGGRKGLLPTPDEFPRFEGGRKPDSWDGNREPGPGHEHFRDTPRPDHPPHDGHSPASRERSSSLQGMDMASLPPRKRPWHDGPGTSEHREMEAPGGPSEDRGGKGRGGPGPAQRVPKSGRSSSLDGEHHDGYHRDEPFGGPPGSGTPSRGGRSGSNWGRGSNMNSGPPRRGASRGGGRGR
Test: EC50 of free RNA motif oligo competing protein binding to immobilised probe
Below is a list of entries, each paired with its recorded EC50 value.
Express it in nM; write the number only.

- ordered_residues: "UAUUUAU"
  study_target: "WDR33 (UniProt Q9C0J8)"
  EC50 [nM]: 960

// field: EC50; key: AAUAAA ; value = 64.6

* * *

Biological target: RPS3A (UniProt P61247)
Assay: EC50 of free RNA motif oligo competing protein binding to immobilised probe
result_type: EC50 (nM)
Number in nM, nothing else.

Sure, the documented EC50 for CUGUCCU is 106

* * *

Target: P4HB (UniProt P07237)
Sequence (P07237 whole entry, looked up): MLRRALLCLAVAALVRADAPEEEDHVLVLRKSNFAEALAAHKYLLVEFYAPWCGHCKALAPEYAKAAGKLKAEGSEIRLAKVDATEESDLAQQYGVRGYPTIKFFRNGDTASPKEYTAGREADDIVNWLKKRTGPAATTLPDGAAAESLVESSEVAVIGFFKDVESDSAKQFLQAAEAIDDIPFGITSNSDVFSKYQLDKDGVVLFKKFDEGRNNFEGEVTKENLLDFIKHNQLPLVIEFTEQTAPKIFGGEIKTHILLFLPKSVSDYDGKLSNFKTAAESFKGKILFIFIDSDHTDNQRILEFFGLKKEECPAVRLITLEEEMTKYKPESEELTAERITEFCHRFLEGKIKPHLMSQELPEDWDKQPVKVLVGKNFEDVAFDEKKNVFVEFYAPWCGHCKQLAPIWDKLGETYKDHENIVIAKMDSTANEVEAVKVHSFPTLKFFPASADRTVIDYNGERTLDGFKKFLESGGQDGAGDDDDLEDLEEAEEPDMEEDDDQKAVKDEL
Test: Kd (EC50 corrected by depletion factor)
result_type: Kd (nM)
Output spec: scalar in nM, unitless text.

Noted for AAUAAA : its Kd reads 24.8

* * *

Target: WDR33 (UniProt Q9C0J8)
Sequence: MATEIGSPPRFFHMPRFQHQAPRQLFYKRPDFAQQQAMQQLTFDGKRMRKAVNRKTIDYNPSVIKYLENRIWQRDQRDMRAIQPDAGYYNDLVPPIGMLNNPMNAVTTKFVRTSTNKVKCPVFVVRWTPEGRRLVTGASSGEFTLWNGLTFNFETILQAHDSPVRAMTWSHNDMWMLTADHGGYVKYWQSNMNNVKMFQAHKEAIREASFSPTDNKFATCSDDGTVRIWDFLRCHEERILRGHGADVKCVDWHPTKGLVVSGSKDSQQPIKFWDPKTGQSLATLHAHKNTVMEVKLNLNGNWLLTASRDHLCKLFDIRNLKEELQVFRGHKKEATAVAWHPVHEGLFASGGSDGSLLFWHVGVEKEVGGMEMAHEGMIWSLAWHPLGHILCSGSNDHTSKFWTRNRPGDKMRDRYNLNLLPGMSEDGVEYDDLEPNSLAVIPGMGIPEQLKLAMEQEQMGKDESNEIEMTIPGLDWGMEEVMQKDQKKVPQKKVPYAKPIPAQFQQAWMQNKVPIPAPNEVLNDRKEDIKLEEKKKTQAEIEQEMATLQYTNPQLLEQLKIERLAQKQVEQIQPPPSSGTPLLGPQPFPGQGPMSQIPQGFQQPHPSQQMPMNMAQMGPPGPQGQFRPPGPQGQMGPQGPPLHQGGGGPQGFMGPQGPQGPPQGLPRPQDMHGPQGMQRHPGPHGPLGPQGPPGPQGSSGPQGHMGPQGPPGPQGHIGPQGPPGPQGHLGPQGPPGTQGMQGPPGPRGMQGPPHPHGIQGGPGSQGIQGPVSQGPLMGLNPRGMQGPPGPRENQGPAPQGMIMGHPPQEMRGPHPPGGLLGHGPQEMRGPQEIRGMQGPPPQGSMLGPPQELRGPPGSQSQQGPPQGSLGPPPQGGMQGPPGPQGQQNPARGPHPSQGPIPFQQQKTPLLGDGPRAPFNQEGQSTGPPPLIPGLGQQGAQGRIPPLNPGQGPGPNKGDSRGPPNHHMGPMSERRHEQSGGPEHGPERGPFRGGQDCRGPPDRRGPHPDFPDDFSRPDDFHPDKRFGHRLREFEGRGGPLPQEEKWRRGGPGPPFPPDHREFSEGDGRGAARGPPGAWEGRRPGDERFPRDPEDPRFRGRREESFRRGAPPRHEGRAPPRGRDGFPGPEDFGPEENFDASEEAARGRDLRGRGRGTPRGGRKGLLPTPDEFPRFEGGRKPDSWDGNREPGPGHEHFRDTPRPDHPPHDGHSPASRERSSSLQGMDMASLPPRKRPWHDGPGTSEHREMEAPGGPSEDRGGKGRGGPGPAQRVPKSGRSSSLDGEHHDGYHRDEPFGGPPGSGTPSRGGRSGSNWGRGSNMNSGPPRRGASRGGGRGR
Assay: Kd (EC50 corrected by depletion factor)
pKd values for the sequences below.
Just so you know, pKd here is -log10 of the concentration in molar units; reply with that number alone.

- ordered_residues: "UAUUUAU"
  pKd: 6.47

// below: pKd requested for another sequence
The sequence AAUAAA showed pKd equal to 8.22
